Recorded polymerase ribozyme fitness (log ratio) values for a group of variants are listed next.
B1: TPR t1 (parent)
chain: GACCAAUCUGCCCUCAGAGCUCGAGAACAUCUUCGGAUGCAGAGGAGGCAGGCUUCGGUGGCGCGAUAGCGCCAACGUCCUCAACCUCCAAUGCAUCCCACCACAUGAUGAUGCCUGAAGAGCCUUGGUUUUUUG

variants of: B1; test: polymerase ribozyme fitness, log enrichment relative to wild type (log ratio); higher = more active; in vitro selection for triplet polymerase activity
Please reply with the number alone, leaving off any unit.

Example variants with recorded polymerase ribozyme fitness (log ratio):
[[record]]
variant_label = "G23U C64U"
val = -4.56

[[record]]
variant_label = "A46U A66C"
val = -2.07


Ask: # polymerase ribozyme fitness (log ratio) lookup, item G52U U125A
Reply: -0.984

Ask: # polymerase ribozyme fitness (log ratio) lookup, item U9A A26U
Reply: -1.79

Ask: # polymerase ribozyme fitness (log ratio) lookup, item G19C G63C
Reply: -2.72

Ask: # polymerase ribozyme fitness (log ratio) lookup, item C40A C72G A108G
Reply: -4.46

Ask: # polymerase ribozyme fitness (log ratio) lookup, item G69U C104U
Reply: 0.349

Ask: # polymerase ribozyme fitness (log ratio) lookup, item `C20G`
Reply: -3.76

Ask: # polymerase ribozyme fitness (log ratio) lookup, item C8U G51A
Reply: -1.3

The reported numbers originate from the RNAGym collection of RNA variant scans (doi:10.1073/pnas.2313332121).
